Below, each of the molecules is paired with its reported GI50 value.
Tested on: NCI/ADR-RES
Assay: NCI tumour cell line growth inhibition, 48 h
The source made the active and inactive calls. Rule as the data show it: active = GI50 up to about 1.1 µM and inactive = higher.

Illustrative cases are given below, each with its answer.
1. O=C(O)CCC(NC(=O)c1ccc(Nc2cnc3ccc(C(F)(F)F)cc3n2)cc1)C(=O)O (stereo unspecified)	> 100 µM (inactive)
2. COc1ccc(N(CN2C(=O)CCC2OC)C(C)=O)cc1 (stereo unspecified)	> 100 µM (inactive)
3. COc1nc2ccc(CNc3ccc(C(=O)O)cc3)cc2nc1OC	> 10 µM (inactive)
4. COc1cc(C2SCC(=O)N2c2ccccn2)cc(OC)c1OC (stereo unspecified)	39.6 µM (inactive)
5. O=C(NCCNCCCNC(=O)c1cc(-c2ccccc2)nc2ccccc12)c1cccc(O)c1O	22.4 µM (inactive)

GET /value?item= `O=C(Nc1nc2ncn(CCOC(=O)c3ccccc3)c2c(=O)[nH]1)c1ccccc1` &field=GI50 returns 66.2 µM (inactive)

* * *

System: SK-OV-3
Assay: NCI tumour cell line growth inhibition, 48 h
Calls of active or inactive are those of the source. Rule as the data show it: active = GI50 up to about 1.1 µM and inactive = higher.
Response enum: active, inactive

Would you please look over these solved cases?
1. COc1ccc(/C=C/C(=O)CC(=O)/C=C/c2ccc(OC)cc2)cc1	inactive
2. Cn1ncc2c(c1=O)Nc1ccccc1S2(=O)=O	inactive
3. Cc1ccsc1C(=S)Nc1ccc(Cl)c(/C=N/OC(C)C)c1	inactive
4. OC(C1CCCCCCCCCC1)C(O)C1CCCCCCCCCC1 (stereo unspecified)	inactive
5. O=C1NC(=S)NC(=O)C1=Cc1cc2c(cc1[N+](=O)[O-])OCO2	inactive
6. C=C(C(=O)OCC)C(=O)OCC	inactive
7. COc1cc(C2SCC(=O)N2c2ccccn2)cc(OC)c1OC (stereo unspecified)	inactive
8. CC(=O)N1C/C(=C\c2ccc(N(C)C)cc2)C(=O)/C(=C/c2ccc(N(C)C)cc2)C1	inactive

## Input Field: outcome | Entry: `CN(C)CCCN1c2ccc([N+](=O)[O-])cc2CCc2cccc([N+](=O)[O-])c21`
## Output inactive

## Input Could you check what this test reported for CC1CC(c2ccccc2)=Nc2ccccc2S1(=O)=O (stereo unspecified) ?
## Output inactive

## Input Each compound tested received a call. Report the one for `c1ccc(C(/C(=N/c2ccc(Cc3ccc(/N=C(\C(c4ccccc4)c4ccccc4)N4CC4)cc3)cc2)N2CC2)c2ccccc2)cc1` .
## Output active

## Input Returns: the outcome recorded for CC(C)=CCC[C@@H](C)C1=C(O)C(O)C(C)=C2N=C(c3ccccc3)C(=O)OC21 (stereo partly specified) in this assay.
## Output inactive

## Input Hi team, can someone confirm the assay call for `CC(C)=C=CP(=O)(O)c1ccccc1` ?
## Output inactive

## Input For this compound, state the assay outcome: `COc1ccc(C(=O)/C(Br)=C/C(=O)O)cc1`
## Output inactive

## Input Recorded call for `O=S(=O)(O)c1ccc(/N=N/c2ccc(/N=N/c3c(O)ccc4ccccc34)cc2)cc1` ?
## Output inactive

## Input Please share the test call associated with `COC(=O)c1ccc(C(=O)OC)c2nc3cc(C)ccc3nc12` .
## Output inactive

* * *

Tested on: LOX IMVI
Assay: NCI tumour cell line growth inhibition, 48 h
Active and inactive are the calls of the source. Cut-off read from the data, not from the text of the source: active = GI50 up to about 1.1 µM and inactive = higher.
Use one of these outcomes when replying: active, inactive

1. CN(C)C(=S)SCC(=O)Nc1ccccc1	inactive
2. CN(C)CCn1c(=O)c2ccc3c4c(nn3CCN(C)C)c3cc([N+](=O)[O-])ccc3n(c1=O)c24	active
3. CC1=CC(=O)CC(C)(C)C1(O)/C=C/C(C)=C/C(=O)O (stereo not given)	inactive
4. O=[N+]([O-])c1cc(Cl)cc2cc(Cl)cnc12	inactive
5. COc1ccc(-n2c(C)nc3ccc(NC4OCC(OC(C)=O)C(OC(C)=O)C4OC(C)=O)cc3c2=O)cc1 (stereo not given)	inactive

## Input Call for entry CCOC(=O)C1=C(C)N(C)C(=S)NC1c1cccc(O)c1 (stereo not given) :
## Output inactive

## Input Outcome logged for `COc1ccc(CCN2CCN(CCCc3ccccc3)CC2)cc1` in this assay:
## Output inactive

## Input Assay result, entry `O=C(O)c1cc2ccccc2c(S(=O)(=O)O)c1O` — outcome?
## Output inactive

## Input Which outcome did this test record for the compound `CCOC(=O)c1c(N=P(c2ccccc2)(c2ccccc2)c2ccccc2)nnc(-c2ccccc2)c1-c1ccccc1` ?
## Output inactive

## Input Dear colleague, could you share the recorded outcome for `O=C(O)c1cc(-c2ccc(-c3ccccc3)cc2)nc2cc3ccccc3cc12` when you have a moment?
## Output inactive

* * *

Tested on: SF-268
Test: NCI tumour cell line growth inhibition, 48 h
Calls of active or inactive are those of the source. No stated cut-off is given here; in the data, active = GI50 up to about 1.1 µM and inactive = higher.
Valid outcomes are listed here; reply with one: 1.0 for active, 0.0 for inactive

1. Cc1cc(NC(=O)NC(=O)c2ccccc2N(C)C)ccc1Oc1ncc(Br)cn1	1.0
2. COc1ccc(COCC[C@H](C)OC2OC(CO)C(O)C(O)C2O)cc1 (stereo not given in full)	0.0

## Input Hey, what did the test say about `O=C(O)c1cc2ccccc2c(S(=O)(=O)O)c1O` ?
## Output 0.0

## Input Per the records of this test, what outcome belongs to `Cc1cc2nc3ccccc3n2c2ccccc12` ?
## Output 0.0

## Input // param item: COC1=C(Br)[C@H](O)[C@@]2(C=C1Br)CC(C(=O)NCCCCCNC(=N)N)=NO2 [APLYSINAMISINE II] ; yields the recorded call
## Output 0.0

* * *

Test system: KM-20L2
Assay: NCI tumour cell line growth inhibition, 48 h
Activity calls are given as the source filed them. Cut-off read from the data, not from the text of the source: active = GI50 up to about 1.1 µM and inactive = higher.
PROPERTY_MEASURED: GI50

1) O=c1nc2occc2cn1C1CC(O)C(CO)O1 (stereo unspecified)	> 100 µM (inactive)
2) CCN(CC)CCCNc1ncc(C)c2[nH]c3ccncc3c12	6.24 µM (inactive)
3) COc1ccc(C2=C(Cl)c3cc(OC)c(OC)cc3C2OC)cc1OC (stereo unspecified)	> 100 µM (inactive)
4) C=CCN(N=O)C(=O)N(CCC)CCCC(NC(C)=O)C(=O)NCc1ccccc1 (stereo unspecified)	> 100 µM (inactive)

So for `NCCCNCCSSCCCCS(=O)O` , the logged GI50 turned out to be > 100 µM (inactive)

response.value for `COC(=O)c1ccc(N/C=C(/C#N)c2ccsc2)cc1` (field: GI50) = 12 µM (inactive)

* * *

Tested on: HOP-62
Experiment: NCI tumour cell line growth inhibition, 48 h
Active and inactive are the calls of the source. Cut-off read from the data, not from the text of the source: active = GI50 up to about 1.1 µM and inactive = higher. *1 amine or outer side, *2 acyl side, *3 side chain or, on linkers, in order; H or OH if unused. Where a SMILES comes first, the peptide text is derived from it. Bridges are numbered along the chain shown (N, C = ends). [ ]: non-standard residue; d: D form. ξ: configuration not given here. X10 = CCC(C)C(N[*:1])C(O)CC(=O)O[C@H](C(=O)C(C)C(=O)[*:2])C(C)C; NMeY = CN[C@@H](Cc1ccc(O)cc1)C(=O)O; ξNMeL = CNC(CC(C)C)C(=O)O; ξT = CC(O)C(N)C(=O)O
Hi! Could you answer with just one of these? TRUE for active, FALSE for inactive

## Input Kindly provide the recorded test outcome for the following molecule: `Cn1cc(C[C@@H](N)C(=O)O)c2ccccc21`
## Output FALSE

## Input Hi, do you know how `COCCOC1=CC(=O)c2c(O)ccc(O)c2C1=O` came out in this test?
## Output TRUE

## Input Please state the recorded outcome for this molecule: CC(=O)C(C(=O)C(=O)Nc1cc(Cl)c(Cl)cc1Cl)c1csc(N)n1 (stereo not given)
## Output FALSE

## Input Record request — test call for CCC(C)C1NC(=O)C(NC(=O)C(CC(C)C)N(C)C(=O)[C@@H]2CCCN2)C(C)OC(=O)[C@H](Cc2ccc(OC)cc2)N(C)C(=O)[C@@H]2CCCN2C(=O)[C@H](CC(C)C)NC(=O)C(C)C(=O)[C@H](C(C)C)OC(=O)CC1O (stereo not given in full) (H-P[ξNMeL][ξT][X10]LP[NMeY](Me); ester 3-C)
## Output TRUE

## Input Test call, this molecule: C=CCN(N=O)C(=O)N(CCC)CCCC(NC(C)=O)C(=O)NCc1ccccc1 (stereo not given)
## Output FALSE

* * *

Tested on: LOX IMVI
Test: NCI tumour cell line growth inhibition, 48 h
Active and inactive are the calls of the source. Rule as the data show it: active = GI50 up to about 1.1 µM and inactive = higher.
Output constraint: value belongs to yes (1) = active, no (0) = inactive

Observe how each entry below is paired with its result.
1) O=C(Nc1nc2ncn(CCOC(=O)c3ccccc3)c2c(=O)[nH]1)c1ccccc1	no (0)
2) COc1ccc(OC)c2sc(N3C(=O)/C(=C/c4ccccc4S)N=C3c3ccccc3)nc12	no (0)
3) C=C(C(=O)OCC)C(=O)OCC	no (0)
4) Cc1ccsc1C(=S)Nc1ccc(Cl)c(/C=N/OC(C)C)c1	no (0)
5) COC(=O)CCC(NC(=S)N/N=C(\C)c1ccc[nH]1)C(=O)OC (stereo unspecified)	no (0)
6) O=C(c1ccccc1)n1cc(-c2ccccc2)c2c(=O)nc[nH]c21	no (0)
7) O=C(/C=C1/NC(=O)CS1)Nc1ccccc1	no (0)
8) COc1cc(C2c3cc4c(cc3[C@@H](Nc3cnc5ccccc5c3)C3COC(=O)[C@H]23)OCO4)cc(OC)c1O (stereo partly specified)	yes (1)

## Input Please share the test call associated with CCOC(=O)C(NC(=O)Nc1ccccc1)(Nc1cccc(Cl)c1)C(F)(F)F (stereo unspecified) .
## Output no (0)

## Input GET /call?item= COC(=O)/C(=N/NC(=O)C[N+](C)(C)C)C(C(=O)OC)C(=O)C(=O)Nc1ccc(F)cc1 (stereo unspecified) returns the recorded outcome of this test.
## Output no (0)

## Input Recorded call for `Cc1cc2c(c(C(=O)O)c1C)-c1cccc(Cl)c1C2=O` ?
## Output no (0)

## Input Can you look up the reported call for OC(/C(=N/c1ccccc1)c1ccccc1)c1ccccc1 (stereo unspecified) for me?
## Output no (0)

## Input For Cc1ccc(C)c(NC(=O)C(=O)C2C(=O)N(c3ccccc3)N=C2N)c1 (stereo unspecified) , which call appears in the assay record?
## Output no (0)

## Input How did this test come out for COC(=O)C1=C(OC(=O)/C=C/c2ccc(Cl)cc2)C(C(=O)OC)[C@@]2(O)[C@@H](C(=O)OC)[C@H](C)C[C@@H]1[C@@H]2C(=O)OC (stereo partly specified) ?
## Output no (0)

## Input Give the logged outcome of this assay for the following molecule: COC(=O)c1sc2ncc3c(c2c1N)CC(C)CC3 (stereo unspecified)
## Output no (0)

## Input Any idea what this test logged for `O=C(O)/C=C/C(=O)O` ?
## Output no (0)

## Input Record lookup: outcome of this test for `COC(=O)c1ccc(C(=O)OC)c2nc3cc(C)ccc3nc12` ?
## Output no (0)

## Input Given [Zn+2][N+]12CCN3CCN4CCN(CC1)[PH]432 (stereo unspecified) , state the outcome it received in this test.
## Output no (0)

## Input Test call, this molecule: `Cc1cccc(-c2cc(O)c3c(C)cc(C)nc3n2)c1`
## Output no (0)

## Input Which result was noted for this molecule in the test: `CCCCCCCCCCCC[N+](CCCCCCCCCCCC)=C1SCCS1`
## Output no (0)

## Input Assay outcome for `NC(=S)N/N=C(\C(=O)Nc1cccc([N+](=O)[O-])c1)c1nc2ccc([N+](=O)[O-])cc2nc1O` : what was it?
## Output no (0)

Cited source for all entries: ChEMBL document CHEMBL1201862
